# test.description: Percutaneous absorption / systemically bioavailable dose from cream
# Type: in vivo
# settings: in vivo, topical or ocular; of the applied dose; cream 0.05-0.1%
measured.metric: Fa

Query block: # get_value(readout='Fa', item= CCc1ccccc1-c1n[nH]c(-c2cccc(OC)c2)n1 )
Result block: ~10%
